Molecular target: V600E full-length B-Raf (Homo sapiens, UniProt P15056, V600E)
Construct: 1 μM FSBA-MEK and 20 nM V600E full-length B-Raf; made in house; host or cells: Sf9 insect cells (baculovirus)
Sequence (P15056 whole entry V600E): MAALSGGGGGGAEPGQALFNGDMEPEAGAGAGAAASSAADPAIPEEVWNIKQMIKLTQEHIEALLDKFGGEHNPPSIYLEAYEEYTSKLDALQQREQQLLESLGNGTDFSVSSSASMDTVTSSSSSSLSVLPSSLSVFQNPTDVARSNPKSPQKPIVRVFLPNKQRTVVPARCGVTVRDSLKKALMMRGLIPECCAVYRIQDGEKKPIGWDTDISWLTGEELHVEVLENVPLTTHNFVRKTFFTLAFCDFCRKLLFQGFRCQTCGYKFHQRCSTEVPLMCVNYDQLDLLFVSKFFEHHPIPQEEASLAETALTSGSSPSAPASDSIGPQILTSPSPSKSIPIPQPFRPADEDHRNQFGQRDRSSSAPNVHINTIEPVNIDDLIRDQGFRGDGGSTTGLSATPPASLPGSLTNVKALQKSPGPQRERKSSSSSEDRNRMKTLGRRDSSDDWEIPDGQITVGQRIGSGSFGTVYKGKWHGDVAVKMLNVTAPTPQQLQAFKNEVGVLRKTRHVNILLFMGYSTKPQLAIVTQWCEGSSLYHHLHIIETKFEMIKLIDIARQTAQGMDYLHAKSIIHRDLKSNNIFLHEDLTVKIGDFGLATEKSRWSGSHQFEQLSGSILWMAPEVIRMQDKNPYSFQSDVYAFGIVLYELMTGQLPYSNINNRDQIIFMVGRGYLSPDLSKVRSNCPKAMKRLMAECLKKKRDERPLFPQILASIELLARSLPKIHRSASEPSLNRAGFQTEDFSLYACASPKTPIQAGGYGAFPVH
Experiment: B-Raf IC50 assay (Example A)
Assay type: biochemical
Conditions: [γ-33P]ATP incorporation into FSBA-MEK, 4 μM ATP; read-out: BRAF V600E IC50
Measurement kind: pIC50
Note: pIC50 values are expressed as the negative base-10 logarithm of concentration in M.

Illustrative cases are given below, each with its answer.
[
  {
    "Molecule": "NC(=O)c1ccc(NS(=O)(=O)CCCF)c(F)c1NC(=O)c1ccnc2c(N)ncnc12 [Example 68]",
    "pIC50": 7.84
  },
  {
    "Molecule": "CCCS(=O)(=O)Nc1ccc(F)c(NC(=O)c2cncc3c(N)ncnc23)c1F [Example 2]",
    "pIC50": 8.90
  },
  {
    "Molecule": "O=C(Nc1c(Cl)ccc(NS(=O)(=O)CCCF)c1F)c1cccc2cncnc12 [Example 59]",
    "pIC50": 8.83
  },
  {
    "Molecule": "CCCS(=O)(=O)Nc1ccc(F)c(NC(=O)c2cccc3c(N)ncnc23)c1 [Example 6]",
    "pIC50": 7.30
  },
  {
    "Molecule": "CCNc1ncnc2c(C(=O)Nc3c(F)c(F)cc(NS(=O)(=O)CCCF)c3F)cccc12 [Example 52]",
    "pIC50": 6.54
  },
  {
    "Molecule": "CCCS(=O)(=O)Nc1ccc(Cl)c(NC(=O)c2ccnc3c(N)ncnc23)c1F [Example 65]",
    "pIC50": 8.94
  },
  {
    "Molecule": "CCCS(=O)(=O)Nc1ccc(F)c(NC(=O)c2cc(C)cc3cncnc23)c1F [Example 79]",
    "pIC50": 7.23
  },
  {
    "Molecule": "CCCS(=O)(=O)Nc1ccc(F)c(NC(=O)c2cccc3cncnc23)c1F [Example 54]",
    "pIC50": 6.93
  }
]

Challenge: Dear colleague, I am looking for the recorded pIC50 of the following molecule: Nc1ncnc2c(C(=O)Nc3c(Cl)ccc(NS(=O)(=O)CCCF)c3Cl)cccc12 [Example 27]
Response given: 10.10

Challenge: Now try Nc1ncnc2c(C(=O)Nc3c(F)ccc(NS(=O)(=O)CCCF)c3F)ccnc12 [Example 66] .
Response given: 9.12

Challenge: Now try Cc1ncnc2c(C(=O)Nc3c(Cl)ccc(NS(=O)(=O)CCCF)c3Cl)cccc12 [Example 60] .
Response given: 9.09

Challenge: Now try O=C(Nc1c(F)c(F)cc(NS(=O)(=O)CCCF)c1F)c1cccc2c(NC3CC3)ncnc12 [Example 51] .
Response given: 6.85

Challenge: Now try Nc1ncnc2c(C(=O)Nc3c(F)ccc(NS(=O)(=O)N4CCCC4)c3F)cccc12 [Example 34] .
Response given: 7.90

Challenge: Now try CCCS(=O)(=O)Nc1ccc(C#N)c(NC(=O)c2ccnc3c(N)ncnc23)c1F [Example 69] .
Response given: 7.71

###

Reported pIC50 by item:
Target: V600E full-length B-Raf (Homo sapiens, UniProt P15056, V600E)
Construct: 1 μM FSBA-MEK and 20 nM V600E full-length B-Raf; made in house; host or cells: Sf9 insect cells (baculovirus)
Experiment: B-Raf IC50 assay (Example A)
Format: biochemical
Conditions: B-Raf V600E assay of Example A; read-out: IC50
pIC50: −log10 of the molar value.

Illustrative cases are given below, each with its answer.
[
  {
    "Smiles notation": "CCCS(=O)(=O)Nc1ccc(Cl)c(NC(=O)c2cccc3c(N)ncnc23)c1Cl",
    "Target": "V600E full-length B-Raf (Homo sapiens, UniProt P15056, V600E)",
    "pIC50": "> 7.00"
  },
  {
    "Smiles notation": "CC(C)CS(=O)(=O)Nc1ccc(Cl)c(NC(=O)c2cccc3c(N)ncnc23)c1F",
    "Target": "V600E full-length B-Raf (Homo sapiens, UniProt P15056, V600E)",
    "pIC50": "> 7.00"
  },
  {
    "Smiles notation": "O=C(Nc1c(F)ccc(NS(=O)(=O)CC2CC2)c1F)c1cccc2cncnc12",
    "Target": "V600E full-length B-Raf (Homo sapiens, UniProt P15056, V600E)",
    "pIC50": "> 6.00"
  }
]

Continue with the molecule presented below.
Challenge: Query the reported pIC50 for V600E full-length B-Raf (Homo sapiens, UniProt P15056, V600E); item: C#Cc1c(NS(=O)(=O)CCC)ccc(Cl)c1NC(=O)c1cccc2c(N)ncnc12
Response given: > 7.00

###

Target: V600E full-length B-Raf (Homo sapiens, UniProt P15056, V600E)
Construct: 1 μM FSBA-MEK and 20 nM V600E full-length B-Raf; made in house; host or cells: Sf9 insect cells (baculovirus)
Test: B-Raf IC50 assay (Example A)
Type: biochemical
Conditions: [γ-33P]ATP incorporation into FSBA-MEK, 4 μM ATP; read-out: BRAF V600E IC50
Measurement kind: pIC50
Note: pIC50 values are expressed as the negative base-10 logarithm of concentration in M.

[
  {
    "Compound": "CCCS(=O)(=O)Nc1cc(F)cc(NC(=O)c2cccc3c(N)ncnc23)c1F [Example 11]",
    "pIC50": 8.38
  }
]

Continue with the compound presented below.
Challenge: Dear colleague, I am looking for the recorded pIC50 of the following compound: CCCS(=O)(=O)Nc1cc(Cl)cc(NC(=O)c2cccc3c(N)ncnc23)c1F [Example 14]
Response given: 7.55

###

Reported pIC50 by item:
Biological target: V600E full-length B-Raf (Homo sapiens, UniProt P15056, V600E)
Construct: 1 μM FSBA-MEK and 20 nM V600E full-length B-Raf; made in house; host or cells: Sf9 insect cells (baculovirus)
Assay: B-Raf IC50 assay (Example A)
Format: biochemical
Conditions: [γ-33P]ATP incorporation into FSBA-MEK, 4 μM ATP; read-out: BRAF V600E IC50
Note: pIC50 values are expressed as the negative base-10 logarithm of concentration in M.

Illustrative cases are given below, each with its answer.
[
  {
    "Smiles notation": "Nc1ncnc2c(C(=O)Nc3c(F)ccc(NS(=O)(=O)CCCF)c3F)cccc12",
    "pIC50": 9.55
  },
  {
    "Smiles notation": "CCCS(=O)(=O)Nc1cc(F)c(F)c(NC(=O)c2cccc3c(NN4CCOCC4)ncnc23)c1F",
    "pIC50": 6.98
  },
  {
    "Smiles notation": "CCCS(=O)(=O)Nc1cc(F)c(F)c(NC(=O)c2cccc3c(NC4CC4)ncnc23)c1F",
    "pIC50": 6.26
  },
  {
    "Smiles notation": "Nc1ncnc2c(C(=O)Nc3c(F)c(F)cc(NS(=O)(=O)CCCF)c3F)cccc12",
    "pIC50": 9.51
  },
  {
    "Smiles notation": "Nc1ncnc2c(C(=O)Nc3c(Cl)ccc(NS(=O)(=O)CCCF)c3F)ccnc12",
    "pIC50": 9.38
  },
  {
    "Smiles notation": "CCCS(=O)(=O)Nc1ccc(F)c(NC(=O)c2cc(C)cc3c(N)ncnc23)c1Cl",
    "pIC50": 9.35
  },
  {
    "Smiles notation": "CCS(=O)(=O)Nc1ccc(F)c(NC(=O)c2cccc3c(N)ncnc23)c1F",
    "pIC50": 8.30
  },
  {
    "Smiles notation": "CCCS(=O)(=O)Nc1ccc(C)c(NC(=O)c2cccc3c(N)ncnc23)c1",
    "pIC50": 7.73
  }
]

Challenge: Dear colleague, I am looking for the recorded pIC50 of the following compound: CC(C)CS(=O)(=O)Nc1ccc(F)c(NC(=O)c2cccc3c(N)ncnc23)c1F
Response given: 8.81

Challenge: Now try CCCS(=O)(=O)Nc1ccc(F)c(NC(=O)c2cccc3c(N)ncnc23)c1OC .
Response given: 6.72

Challenge: Now try CCCS(=O)(=O)Nc1ccc(Cl)c(NC(=O)c2cccc3c(N)ncnc23)c1Cl .
Response given: 10.15

###

Biological target: V600E full-length B-Raf (Homo sapiens, UniProt P15056, V600E)
Construct: 1 μM FSBA-MEK and 20 nM V600E full-length B-Raf; made in house; host or cells: Sf9 insect cells (baculovirus)
Test: B-Raf IC50 assay (Example A)
Assay type: biochemical
Conditions: [γ-33P]ATP incorporation into FSBA-MEK, 4 μM ATP; read-out: BRAF V600E IC50
Response field class: enum, chosen by comparing IC50 against low bracket: < 1 nM; middle bracket: ≥ 1 nM and < 3 nM; high bracket: ≥ 3 nM

Previously resolved entries follow.
[
  {
    "Molecule": "CCCS(=O)(=O)Nc1ccc(F)c(NC(=O)c2cc(C)cc3c(N)ncnc23)c1F [Example 70]",
    "Group": "middle bracket"
  },
  {
    "Molecule": "CCS(=O)(=O)Nc1ccc(F)c(NC(=O)c2cccc3c(N)ncnc23)c1Cl [Example 20]",
    "Group": "middle bracket"
  },
  {
    "Molecule": "O=C(Nc1c(F)ccc(NS(=O)(=O)CC2CC2)c1F)c1cccc2c(NC3CC3)ncnc12 [Example 53]",
    "Group": "high bracket"
  },
  {
    "Molecule": "CCCS(=O)(=O)Nc1ccc(F)c(NC(=O)c2cc(C)cc3c(NC4CCC4)ncnc23)c1F [Example 75]",
    "Group": "high bracket"
  },
  {
    "Molecule": "Nc1ncnc2c(C(=O)Nc3c(Cl)ccc(NS(=O)(=O)CCCF)c3F)cccc12 [Example 25]",
    "Group": "low bracket"
  },
  {
    "Molecule": "CCCS(=O)(=O)Nc1ccc(F)c(NC(=O)c2cccc3c(N)ncnc23)c1C#N [Example 28]",
    "Group": "low bracket"
  },
  {
    "Molecule": "Nc1ncnc2c(C(=O)Nc3c(F)ccc(NS(=O)(=O)CC4CC4)c3F)cccc12 [Example 13]",
    "Group": "high bracket"
  },
  {
    "Molecule": "CCCS(=O)(=O)Nc1cccc(NC(=O)c2cccc3c(N)ncnc23)c1C#N [Example 30]",
    "Group": "low bracket"
  }
]

Challenge: Each molecule maps to one class by IC50. Which class for CCCS(=O)(=O)Nc1ccc(F)c(NC(=O)c2cc(C)cc3c(NC4CCC(F)(F)CC4)ncnc23)c1F [Example 76] ?
Response given: high bracket

Challenge: Now try CCCS(=O)(=O)Nc1cc(F)c(F)c(NC(=O)c2cccc3c(NC4CCOCC4)ncnc23)c1F [Example 42] .
Response given: high bracket
